# Tested on: Human immunodeficiency virus 1
# Assay info: Antiviral activity against HIV1 infected MT4 cells in presence of 50% NHS
# Type: functional, organism-based
# Experimental parameters: Human immunodeficiency virus 1, MT4
Reported property: IC95 (nM)
One number for each entry, in nM.

Look over these answered cases.
[
  {
    "Compound": "CNC(=O)c1cccc(C2CN(C)C(=O)c3c(O)c(C(=O)NCc4ccc(F)cc4)nn32)c1 (stereo not given)",
    "Unit string": "nM",
    "Quantitative result": 1000
  },
  {
    "Compound": "CNC(=O)c1cc(F)ccc1CNC(=O)c1nn2c(c1O)C(=O)N(C)C[C@H]2c1ccccc1",
    "Unit string": "nM",
    "Quantitative result": 250
  },
  {
    "Compound": "CN1CC(c2cccnc2)n2nc(C(=O)NCc3ccc(F)cc3)c(O)c2C1=O (stereo not given)",
    "Unit string": "nM",
    "Quantitative result": 500
  }
]

Let us examine a further case.
Req: Specify reported IC95 for the compound shown: CC(C)C1CN(C)C(=O)c2c(O)c(C(=O)NCc3ccc(F)cc3)nn21 (stereo not given)
Resp: 250
